# Test system: MCF7
# EXPERIMENT SUMMARY: In vitro cytotoxicity against human mammary carcinoma MCF-7
# Type: functional, cell-based
REPORTED METRIC: pIC50
Numbers only, as −log10 of the molar value.

Known results for compounds:
[
  {
    "COMPOUND": "CC(=O)O[C@@]12CO[C@@H]1C[C@H](O)[C@@]1(C)C(=O)[C@H](O)C3=C(C)[C@@H](OC(=O)[C@H](O)[C@@H](NC(=O)c4ccccc4)c4ccccc4)[C@@H]4OC(=O)O[C@]4([C@@H](OC(=O)c4ccccc4)C12)C3(C)C (some centres undefined)",
    "REPORTED METRIC": "pIC50",
    "NUMBER": 7.96
  },
  {
    "COMPOUND": "CC(=O)O[C@@]12CO[C@@H]1C[C@H](O)[C@@]1(C)C(=O)[C@H](O)C3=C(C)[C@@H](O)[C@H](OC(=O)[C@@H](O)C(NC(=O)OC(C)(C)C)c4ccccc4)[C@@](O)([C@@H](OC(=O)c4ccccc4)C12)C3(C)C (some centres undefined)",
    "REPORTED METRIC": "pIC50",
    "NUMBER": 7.59
  },
  {
    "COMPOUND": "CC(=O)O[C@@]12CO[C@@H]1C[C@H](O)[C@@]1(C)C(=O)[C@H](O)C3=C(C)[C@@H](O)[C@H](OC(=O)[C@@H](O)C(NC(=O)c4ccccc4)c4ccccc4)[C@@](O)([C@@H](OC(=O)c4ccccc4)C12)C3(C)C (some centres undefined)",
    "REPORTED METRIC": "pIC50",
    "NUMBER": 6.57
  }
]

Could you now look at the following compound, please?
[in] Could you tell me which pIC50 is on file for CC(=O)O[C@@]12CO[C@@H]1C[C@H](O)[C@@]1(C)C(=O)[C@H](O)C3=C(C)[C@@H](OC(=O)[C@H](O)[C@@H](NC(=O)OC(C)(C)C)c4ccccc4)[C@@H]4OC(=O)O[C@]4([C@@H](OC(=O)c4ccccc4)C12)C3(C)C (some centres undefined) ?
[out] 8.74

====

# Test system: A121
# EXPERIMENT SUMMARY: In vitro cytotoxicity against human ovarian carcinoma […]
# Format: functional, cell-based
REPORTED METRIC: IC50 (nM)
One number for each entry, in nM.

[
  {
    "COMPOUND": "CC(=O)O[C@@]12CO[C@@H]1C[C@H](O)[C@@]1(C)C(=O)[C@H](O)C3=C(C)[C@@H](O)[C@H](OC(=O)[C@@H](O)C(NC(=O)OC(C)(C)C)c4ccccc4)[C@@](O)([C@@H](OC(=O)c4ccccc4)C12)C3(C)C (stereo not given in full)",
    "QUANTITY UNIT": "nM",
    "IC50": 80
  },
  {
    "COMPOUND": "CC(=O)O[C@H]1C(=O)[C@@]2(C)[C@H]([C@H](OC(=O)c3ccccc3)[C@]3(O)C[C@H](OC(=O)[C@H](O)[C@@H](NC(=O)c4ccccc4)c4ccccc4)C(C)=C1C3(C)C)[C@]1(OC(C)=O)CO[C@@H]1C[C@@H]2O",
    "QUANTITY UNIT": "nM",
    "IC50": 6.1
  },
  {
    "COMPOUND": "CC(=O)O[C@@]12CO[C@@H]1C[C@H](O)[C@@]1(C)C(=O)[C@H](O)C3=C(C)[C@@H](O)[C@H](OC(=O)[C@@H](O)C(NC(=O)c4ccccc4)c4ccccc4)[C@@](O)([C@@H](OC(=O)c4ccccc4)C12)C3(C)C (stereo not given in full)",
    "QUANTITY UNIT": "nM",
    "IC50": 1040
  },
  {
    "COMPOUND": "CC(=O)O[C@@]12CO[C@@H]1C[C@H](O)[C@@]1(C)C(=O)[C@H](O)C3=C(C)[C@@H](OC(=O)[C@H](O)[C@@H](NC(=O)OC(C)(C)C)c4ccccc4)[C@@H]4OC(=O)O[C@]4([C@@H](OC(=O)c4ccccc4)C12)C3(C)C (stereo not given in full)",
    "QUANTITY UNIT": "nM",
    "IC50": 6.2
  }
]

Could you now look at the following compound, please?
[in] Could you tell me which IC50 is on file for CC(=O)O[C@@]12CO[C@@H]1C[C@H](O)[C@@]1(C)C(=O)[C@H](O)C3=C(C)[C@@H](OC(=O)[C@H](O)[C@@H](NC(=O)c4ccccc4)c4ccccc4)[C@@H]4OC(=O)O[C@]4([C@@H](OC(=O)c4ccccc4)C12)C3(C)C (stereo not given in full) ?
[out] 105
